Measured TGI accompanies every entry in the list below.
- System: HT29 colon
- Method description: NCI tumour cell line growth inhibition, 48 h
Recorded endpoint: TGI

1) COc1cc2nc(-c3cccs3)nc(Nc3cccc(Cl)c3)c2cc1OC: > 100 µM
2) CCOc1cc2c(cc1O)C(O)C[C@@H]1[C@@H]2CC[C@]2(C)[C@@H](O)CC[C@@H]12 (stereo partly drawn): 25.1 µM
3) CC1=CCC[C@H]2[C@](C)(CC3=CC(=O)C(SCC(C)C)=CC3=O)[C@@H](C)CC[C@]12C: 29.9 µM
4) Cc1c([C@H](C)[C@@H]2NC[C@@H](C)C[C@H]2O)ccc2c1C[C@H]1[C@H]2CC=C2C[C@@H](O)CC[C@@]21C: 42 µM
5) CS(=O)(=O)Nc1cccc(-c2ccc3ncnc(Nc4ccc(F)c(Cl)c4)c3c2)c1: 3.73 µM
6) CCSC1=CC2(O)N(CCc3ccc(OC)c(OC)c3)C(=O)CC2(C(=O)OC)CC1=O (stereo not drawn): 32.9 µM
7) CCC(=O)OC1CCn2c1nc1c2C(=O)C(C)=C(NC(C)=O)C1=N (stereo not drawn): 3.36 µM
8) O=C(CN(/C=C/C(=O)C(F)(F)F)c1ccc(Cl)cc1)c1ccc(Cl)c(Cl)c1: > 100 µM
9) O=C(O)c1ccccc1C1c2ccccc2Oc2ccccc21: > 100 µM
10) COc1ccccc1NC(=O)C1=C(C)NC(C)=C(C(=O)Nc2ccccc2OC)C1/C=C/c1ccccc1: > 100 µM
11) c1ccc(OCCC[P+](c2ccccc2)(c2ccccc2)c2ccccc2)cc1: 9.21 µM
12) Cc1cc(C)c(C#N)c(Sc2nc(C)c([N+](=O)[O-])c(C)c2C#N)n1: 10.8 µM
13) Cc1c(C(=O)O)n(C)c(=O)n(C)c1=O: > 100 µM
14) COc1ccccc1NC(=O)CC(=O)NN: > 100 µM
15) CC(=O)N1CCN(CCNC(=O)n2cc(-c3ccncc3)c(-c3cc(O)cc(Cl)c3)n2)CC1: 11.9 µM
16) CC1(C)O[C@@H](C[C@]2(C#N)C[C@H](CCl)OC(C)(C)O2)C[C@@H](C#N)O1: > 100 µM
17) N#Cc1c(N)nc2c3c1NC(=O)C(C(N)=O)C3c1ccccc1O2 (stereo not drawn): > 100 µM
18) CCOC(=O)CCC(C(=O)OCC)n1nnc2cc(Nc3c(C)[n+]([O-])c4cc(F)c(OCC)cc4[n+]3[O-])ccc21 (stereo not drawn): > 100 µM
19) O=C(NC(=O)c1c(Cl)nc2sccn12)Nc1ccc(Cl)cc1: > 100 µM
20) COc1ccc(-c2cncn2-c2cc(OC)c(OC)c(OC)c2)cc1: > 100 µM
21) CC(CNC(N)=O)NC(N)=O (stereo not drawn): > 100 µM
22) O=[N+]([O-])/C(C(Cl)=C(Cl)Cl)=C(/Nc1cccc2cccnc12)n1nnc2ccccc21: 40.5 µM
23) COc1ccc(C)cc(=O)c1O: > 100 µM
24) CCN(CC)C(=O)CCN1CC1: > 10 µM
25) CCCOC(=O)c1c(C)n(C)c2scc[n+]12: > 100 µM
26) O=C1NC(N2CCOCC2)=N/C1=C\c1ccc(O)cc1: > 100 µM
27) N#CC(C(=O)CCCC(=O)Nc1ccc(Cl)cc1Cl)c1ccccc1 (stereo not drawn): > 100 µM
28) Nc1nc2c(C(=O)NCc3cccs3)nnn2c2cccc(Cl)c12: > 100 µM

Origin of measurements: PubChem BioAssay (NCI)
